B1: library; a variant is named by its letters at N, in order (parent)
chain: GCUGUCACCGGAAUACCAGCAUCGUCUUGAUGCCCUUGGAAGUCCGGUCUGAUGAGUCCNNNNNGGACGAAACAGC

Variants of: B1
test.details: FACS-Seq fitted mean relative fluorescence mCherry/BFP with ligand (log10 relative fluorescence); ligand concentration (+) FACS-Seq: 1 mM; higher = higher reporter protein expression
condition.details: HEK293T, ligand present: yes
Would you mind labelling by FACS-Seq fitted mean (log10)? At or over 0.9 is 1, under is -1.

### Prompt API: above_or_equal(metric=FACS-Seq fitted mean (log10), cutoff=0.9) for item `AACUG`
### Response 1

### Prompt API: above_or_equal(metric=FACS-Seq fitted mean (log10), cutoff=0.9) for item `AGUAA`
### Response -1

### Prompt API: above_or_equal(metric=FACS-Seq fitted mean (log10), cutoff=0.9) for item `CACUA`
### Response -1

### Prompt API: above_or_equal(metric=FACS-Seq fitted mean (log10), cutoff=0.9) for item `CUAAU`
### Response 1

### Prompt API: above_or_equal(metric=FACS-Seq fitted mean (log10), cutoff=0.9) for item `UGUGU`
### Response -1

### Prompt API: above_or_equal(metric=FACS-Seq fitted mean (log10), cutoff=0.9) for item `GCGAU`
### Response -1

### Prompt API: above_or_equal(metric=FACS-Seq fitted mean (log10), cutoff=0.9) for item `UCUUG`
### Response 1
